Kd data for TSGP2 (Ornithodoros kalahariensis) follow.
# value in nM; strip the unit string

| MOLECULE | OBSERVABLE | UNIT ANNOTATION | TEST VALUE |
| --- | --- | --- | --- |
| CCCCC/C=C\C/C=C\C/C=C\C/C=C\CCCC(=O)O [Arachidonic acid, arachidonic acid (AA)] | Kd | nM | 69 |

Incoming: What reported Kd corresponds to CCCCC/C=C\C[C@@H](O)/C=C/C=C/C=C\[C@@H](O)CCCC(=O)O [LTB4, leukotriene B4] on TSGP2 (Ornithodoros kalahariensis)?
Outgoing: 18

---

Biological target: Moubatin-like 3 (Ornithodoros parkeri, UniProt A6N9T1)
Sequence (A6N9T1 20-176): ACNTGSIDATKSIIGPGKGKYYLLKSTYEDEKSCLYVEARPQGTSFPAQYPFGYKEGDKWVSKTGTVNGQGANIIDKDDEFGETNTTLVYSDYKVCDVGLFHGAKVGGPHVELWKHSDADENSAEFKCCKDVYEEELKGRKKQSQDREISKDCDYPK
pKd: recorded values
In textbook form, pKd equals minus log to base ten of the concentration in mol/L.

| COMPOUND | TARGET UNDER TEST | TEST VALUE |
| --- | --- | --- |
| NCCc1c[nH]cn1 [Histamine, histamine] | Moubatin-like 3 (Ornithodoros parkeri, UniProt A6N9T1) | 6.97 |

Query compound follows.
Incoming: Need pKd, item NCCc1c[nH]c2ccc(O)cc12 [Serotonin, serotonin (5-hydroxytryptamine, 5-HT)]
Outgoing: 6.94
